- Target or test system: SARM1 (ARM-SAM-TIR) (Homo sapiens (Human), UniProt Q6SZW1)
- Sequence (Q6SZW1 other isoform, or with tags, fused parts or gaps): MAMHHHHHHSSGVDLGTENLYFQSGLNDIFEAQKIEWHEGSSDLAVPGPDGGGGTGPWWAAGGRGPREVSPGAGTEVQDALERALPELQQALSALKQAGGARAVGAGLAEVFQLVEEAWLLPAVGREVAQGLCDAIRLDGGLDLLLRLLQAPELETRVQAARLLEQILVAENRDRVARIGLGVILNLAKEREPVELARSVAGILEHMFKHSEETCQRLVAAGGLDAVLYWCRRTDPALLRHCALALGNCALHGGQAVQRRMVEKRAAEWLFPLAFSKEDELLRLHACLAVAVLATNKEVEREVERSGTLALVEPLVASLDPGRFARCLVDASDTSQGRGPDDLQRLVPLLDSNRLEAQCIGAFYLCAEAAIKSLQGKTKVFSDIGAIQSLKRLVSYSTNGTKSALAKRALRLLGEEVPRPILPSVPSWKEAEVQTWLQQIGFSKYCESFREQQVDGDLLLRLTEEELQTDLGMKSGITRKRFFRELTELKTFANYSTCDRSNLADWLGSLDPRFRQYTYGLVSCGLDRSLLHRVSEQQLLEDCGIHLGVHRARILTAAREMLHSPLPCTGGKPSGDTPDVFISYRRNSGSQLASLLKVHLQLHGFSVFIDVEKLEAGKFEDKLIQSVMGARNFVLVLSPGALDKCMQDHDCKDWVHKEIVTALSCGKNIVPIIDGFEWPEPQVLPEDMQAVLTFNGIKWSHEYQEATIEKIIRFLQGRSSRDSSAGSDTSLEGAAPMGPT
- Assay comment: ARM-SAM-TIR SARM1 IC50 assay (NADase activity, NAD+ cleavage, RapidFire MS)
- Assay context: ARM-SAM-TIR lysate 5 μg/mL, 2 h pre-incubation, 5 μM NAD+, 2 hr room temperature
pIC50: −log10 of the molar value.
Property name: pIC50

Examples from the recorded data:
1. [2H]C([2H])(C(=O)Nc1cc(-c2ccncc2)n[nH]1)C([2H])([2H])c1ccc(Cl)nc1; > 5.30
2. NC(=O)c1cnccc1-c1nnc(NC(=O)CCc2ccc(Cl)cc2)[nH]1; > 5.30
3. Cc1c(-c2ccncc2)n[nH]c1NC(=O)COc1ccc(C#N)cc1; 4.82 to 5.30

Item O=C(Nc1cc(-c2ccncc2)n[nH]1)[C@H]1C[C@H](c2ccc(Cl)nc2)C1 has what recorded pIC50? > 5.30

###

Each entry below carries its reported pIC50.
- Target or test system: SARM1 (ARM-SAM-TIR) (Homo sapiens (Human), UniProt Q6SZW1)
- Assay comment: ARM-SAM-TIR SARM1 IC50 assay (NADase activity, NAD+ cleavage, RapidFire MS)
- Assay context: ARM-SAM-TIR lysate 5 μg/mL, 2 h pre-incubation, 5 μM NAD+, 2 hr room temperature
pIC50: −log10 of the molar value.

Examples from the recorded data:
1. O=C(NCc1ccc(Cl)cc1)Nc1cc(-c2ccncc2)n[nH]1 [Example 7]; > 5.30
2. CS(=O)(=O)c1ccc(CCC(=O)Nc2nnc(-c3ccncc3)[nH]2)cc1 [Example 126]; 4.52 to 4.82
3. CC1(c2c(-c3ccncc3)n[nH]c2NC(=O)CCc2ccc(Cl)nc2)CC1 [Example 310]; > 5.30
4. Cc1cccc(CS(=O)(=O)Nc2[nH]nc(-c3ccncc3)c2C)c1 [Example 254]; 4.82 to 5.30
5. O=C(CCCc1ccccc1)Nc1nnc(-c2ccncc2)[nH]1 [Example 142]; 4.82 to 5.30

Item O=C(NCc1ccc(Cl)nc1)Nc1cc(-c2ccncc2)n[nH]1 [Example 174] has what recorded pIC50? > 5.30

And O=C(CCc1ccc(Cl)cc1)Nc1nc(-c2ccncc2)c[nH]1 [Example 20] ? > 5.30

And O=C(CCc1cccc(Cl)c1)Nc1nnc(-c2ccncc2)[nH]1 [Example 137] ? > 5.30

And O=C(CC1CCOc2cc(Cl)ccc21)Nc1nnc(-c2ccncc2)[nH]1 (stereo not drawn) [Example 29] ? > 5.30

###

- Target or test system: SARM1 (ARM-SAM-TIR) (Homo sapiens (Human))
- Assay comment: ARM-SAM-TIR SARM1 IC50 assay (NADase activity, NAD+ cleavage, RapidFire MS)
- Assay context: ARM-SAM-TIR lysate 5 μg/mL, 2 h pre-incubation, 5 μM NAD+, 2 hr room temperature
- Description: This Example describes an assay of ARM-SAM-TIR NADase activity and use of this assay to measure the efficacy of compounds of Formula I or Formula I′ to block SARM1 mediated NAD+ cleavage. […] The cultures were supplemented with 1 mM NR at time of transfection to minimize toxicity from ARM-SAM-TIR overexpression. […] Protein concentration was determined by the Bicinchoninic (BCA) method and used to normalize lysate concentrations. […]
Each entry below carries its reported IC50.

1. O=C(Nc1nnc(-c2ccncc2)[nH]1)[C@H]1CCc2ccccc2C1; < 5 µM
2. [2H]C([2H])(C(=O)Nc1nnc(-c2ccncc2)[nH]1)C([2H])([2H])c1ccc(Cl)cc1; < 5 µM

Attention now turns to another entry.
Item O=C(CC1CCOc2ccccc21)Nc1nnc(-c2ccncc2)[nH]1 (stereo not drawn) has what recorded IC50? < 5 µM

###

Each entry below carries its reported pIC50.
- Target or test system: SARM1 (ARM-SAM-TIR) (Homo sapiens (Human), UniProt Q6SZW1)
- Assay comment: ARM-SAM-TIR SARM1 IC50 assay (NADase activity, NAD+ cleavage, RapidFire MS)
- Assay type: biochemical
- Assay context: ARM-SAM-TIR lysate 5 μg/mL, 2 h pre-incubation, 5 μM NAD+, 2 hr room temperature
pIC50: −log10 of the molar value.

1. O=C(CCc1ccc(Cl)cc1)Nc1nnc(-c2ccns2)[nH]1; > 5.30
2. O=C(CCc1ccc(Cl)nc1)Nc1cc(-c2ccnnc2)n[nH]1; > 5.30
3. COc1cnccc1-c1nnc(NC(=O)CCc2ccc(Cl)cc2)[nH]1; > 5.30

GET /values?readout=pIC50&system=SARM1 (ARM-SAM-TIR) (Homo sapiens (Human), UniProt Q6SZW1)&item= Cc1c(-c2ccnnc2)n[nH]c1NC(=O)CCc1ccc(Cl)c(F)c1 > 5.30

And Cc1c(-c2ccncc2)nn(C)c1NC(=O)CCc1ccc(Cl)nc1 ? > 5.30

And CNC(=O)Cc1c(-c2ccncc2)n[nH]c1NC(=O)CCc1ccc(Cl)cc1 ? > 5.30

And O=C(CCc1ccc(Cl)cc1)Nc1cc(-c2ccncc2-c2ccccc2)n[nH]1 ? > 5.30

And Cc1ccc(OCC(=O)Nc2[nH]nc(-c3ccncc3)c2C)cc1 ? 4.82 to 5.30

And Cc1c(-c2ccncc2)n[nH]c1NC(=O)CC1CCOc2cc(Cl)ccc21 (stereo not drawn) ? > 5.30

And O=C(Nc1nnc(-c2ccncc2)[nH]1)[C@@H]1C[C@@H]1c1ccccc1 ? 4.52 to 4.82

And O=C(Nc1cc(-c2ccnnc2)n[nH]1)[C@H]1C[C@H](c2ccc(Cl)cc2)C1 ? > 5.30

And Cc1c(-c2ccncc2)n[nH]c1NC(=O)[C@H]1C[C@H](c2ccc(Cl)nc2)C1 ? > 5.30

And CN(C)C(=O)Cc1c(-c2ccncc2)n[nH]c1NC(=O)CCc1ccc(Cl)nc1 ? > 5.30

And Cc1c(-c2ccncc2)n[nH]c1NC(=O)CCc1ccc(Cl)cc1 ? > 5.30

And CCC(C)c1cc(C(=O)Nc2[nH]nc(-c3ccncc3)c2C)on1 (stereo not drawn) ? 4.82 to 5.30

And O=C(CCC1CCCCC1)Nc1nnc(-c2ccncc2)[nH]1 ? 4.82 to 5.30

And CCc1c(-c2ccncc2)n[nH]c1NC(=O)CN1CCCc2sccc2C1=O ? 4.82 to 5.30

And Cc1c(-c2ccncc2)n[nH]c1NC(=O)c1ccc(OC2CCC2)cc1 ? 4.82 to 5.30

###

- Target or test system: UniProt Q6SZW1
- Assay comment: ARM-SAM-TIR SARM1 IC50 assay (NADase activity, NAD+ cleavage, RapidFire MS)
- Assay context: ARM-SAM-TIR lysate 5 μg/mL, 2 h pre-incubation, 5 μM NAD+, 2 hr room temperature
Property name: IC50

Examples from the recorded data:
1. Cc1ccc(OCC(=O)Nc2nnc(-c3ccncc3)[nH]2)c(C)c1; 15 to 30 µM
2. O=C(C[C@H]1CCOc2cc(Cl)ccc21)Nc1cc(-c2ccnnc2)n[nH]1; < 5 µM

Item Cc1c(-c2ccncc2)n[nH]c1NC(=O)CCc1ccc(C#N)cc1 has what recorded IC50? < 5 µM

And O=C(C[C@@H]1CCOc2nc(Cl)ccc21)Nc1nnc(-c2ccncc2)[nH]1 ? < 5 µM

And O=C(CC1OCCc2ccccc21)Nc1nnc(-c2ccncc2)[nH]1 (centres unmarked) ? 5 to 15 µM

###

- Target or test system: SARM1 (ARM-SAM-TIR) (Homo sapiens (Human), UniProt Q6SZW1)
- Assay comment: ARM-SAM-TIR SARM1 IC50 assay (NADase activity, NAD+ cleavage, RapidFire MS)
- Assay context: ARM-SAM-TIR lysate 5 μg/mL, 2 h pre-incubation, 5 μM NAD+, 2 hr room temperature
pIC50: −log10 of the molar value.
Each entry below carries its reported pIC50.

Examples from the recorded data:
1) O=C(CCc1ccc(C(F)(F)F)cn1)Nc1nnc(-c2ccncc2)[nH]1; 4.82 to 5.30
2) CC(C)(Cc1ccccc1)C(=O)Nc1nnc(-c2ccncc2)[nH]1; 4.82 to 5.30
3) Nc1cc(-c2cc(NC(=O)CCc3ccc(Cl)cc3)[nH]n2)ccn1; > 5.30
4) O=C(CCc1ccc(Cl)cc1)Nc1nnc(-c2ccnc(O)c2)[nH]1; < 4.52
5) CN(C)C(Cc1ccccc1)C(=O)Nc1nnc(-c2ccncc2)[nH]1 (stereo not drawn); < 4.52
6) NS(=O)(=O)c1c(-c2ccncc2)n[nH]c1NC(=O)CCc1ccc(Cl)cc1; 4.82 to 5.30

GET /values?readout=pIC50&system=SARM1 (ARM-SAM-TIR) (Homo sapiens (Human), UniProt Q6SZW1)&item= CC(C)(C)OC(=O)N1CCC(CC(=O)Nc2nnc(-c3ccncc3)[nH]2)c2ccccc21 (stereo not drawn) < 4.52

And O=C(CC1CCOc2nc(Cl)ccc21)Nc1nnc(-c2ccncc2)[nH]1 (stereo not drawn) ? > 5.30

And O=C(CNc1ccc(Cl)cc1)Nc1cc(-c2ccncc2)n[nH]1 ? > 5.30

And Cc1c(-c2ccncc2)n[nH]c1NC(=O)/C=C/c1c(F)cccc1F ? 4.82 to 5.30

And O=C(CCc1ccc(Cl)cc1)Nc1[nH]nc(-c2ccnnc2)c1C1CCC1 ? > 5.30

And Cc1c(-c2ccncc2)n[nH]c1NC(=O)C[C@H]1CCOc2cc(Cl)ccc21 ? > 5.30

And O=C(Nc1nnc(-c2ccncc2)[nH]1)[C@H]1C[C@H](c2ccc(Cl)cc2)C1 ? > 5.30

And O=C(C[C@@H]1CCOc2ccccc21)Nc1nnc(-c2ccncc2)[nH]1 ? > 5.30

And N#Cc1ccc(CCC(=O)Nc2cc(-c3ccncc3)n[nH]2)cc1 ? > 5.30

And N#Cc1c(-c2ccnnc2)n[nH]c1NC(=O)CCc1ccc(Cl)cc1 ? > 5.30

And Cc1c(-c2ccnnc2)n[nH]c1NC(=O)C[C@H]1CCOc2cc(Cl)ccc21 ? > 5.30

And Cc1c(-c2ccncc2)n[nH]c1NC(=O)CCc1ccc(F)nc1 ? > 5.30
